System: MS2 coat protein
assayOverview: apparent KD of MS2 coat protein; designed switch direction (-1 OFF switch, 1 ON switch): 1; higher = weaker reporter binding
assaySetup: input ligand: none
apparent KD of MS2 coat protein values for the sequences below.
Output spec: scalar in nM, unitless text.

- sequenceData: "GUGGUUCUCGUAGGAUAUGUAGGAUAUGCCUACAUGAGGAUCACCCAUGUUCGCAUGGCAGAAGGACAGAAGGACGAUCACUAA [pwkr ssNG2 2FMN + 1F5.15] (Eterna round: R96, puzzle: Same State NG 2)"
  uom: "nM"
  apparent KD of MS2 coat protein: 94.2

Pending sequence:
In: Consider the sequence GCCGGCUGGUGAGGAUAUGGCACCUUAUUGGUGCCAGAAGGCAUGUCAAUUGACAUGAGGAUCACCCAUGUGUUGUCGUUGGCG [salish99_SSNG1_r04_609] (Eterna round: R96, puzzle: Same State NG 1) and give its recorded apparent KD of MS2 coat protein.
Out: 742

* * *

System: K4 kissing-loop RNA reporter;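 further: bound reporter read as fluorescence of individual clusters on recovered sequencing chips by microscopy, with normalized cluster intensities fitted with a binding model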
assayOverview: apparent KD of K4 kissing-loop reporter; higher = weaker reporter binding
assaySetup: Eterna round: R107; input ligand: theophylline 20 uM
measuredProperty: apparent KD of K4 kissing-loop reporter (nM)
Output spec: scalar in nM, unitless text.

Solved cases (4 shown):
- sequenceData: "CGCAAGCAGCCAGUGAUGUUGGCCGCCUUGCGAGGACCGGUACGGCCGCCACUCGAAGGCGGCUACUGAUAAACCGUCUAACGGA [KL-XTryp-A9]"
  readoutNumber: 95.4
- sequenceData: "CGCGCCCAGCCGGAUACCAGUGACCCGCUGGGAACCGCGGGCCCAGAGUGAUGUUCGGGACACCCUUGGCAGCCGCCUGGGCGGC [#2 Same State - Theophylline B Attempt #9 (HarryS)]"
  readoutNumber: 717
- sequenceData: "CAGCAGAGUGAUGUUCUGCUUACUGCGGAUACCAGCUUUGCCAGAGGCCCUUGGCAGCCGCACGGCUCAGUGAUGUUGGGUCACG [Same State Theophylline A GF 13]"
  readoutNumber: 323
- sequenceData: "CAGGCCGAGUGAUGUUCGGUCUGAGUGAUAAAGGAUAUAAGGGAUUUUAGAAGGUUAUCUAAACAGACCAAACAUCUAUCCACUC [theeternabot_exclusion_KL_FMN_A_16]"
  readoutNumber: 145

Pending sequence:
In: Consider the sequence UGAUACCAGACGGCCGCCACUUCUGCAAGUCAAAGACUUGCCAAGGGAAUCGUCCAGUGAUGUUGGAGGACCGGGUCUGGUAUCU [FiskerMod 3 - Jieux - Exclusion - Tryptophan B] and give its recorded apparent KD of K4 kissing-loop reporter.
Out: 585

* * *

Tested on: MS2 coat protein
assayOverview: apparent KD of MS2 coat protein; designed switch direction (-1 OFF switch, 1 ON switch): -1; higher = weaker reporter binding
assaySetup: input ligand: none
Entry flag: Met if apparent KD of MS2 coat protein reaches 500 nM; Not met if it does not.

Solved cases (4 shown):
- sequenceData: "CCGAUGUCAGGAUAUCGUGCAUACAACGAAAGUUCUAUGUGCGAGAAGGGACAUGAGGAUCACCCAUGUUACGG [Omei Ex4 A2] (Eterna round: R97, puzzle: Exclusion 4)"
  subjectOfTest: "MS2 coat protein"
  cat: "Not met"
- sequenceData: "UAUUAGCAAGCCAAUGGGUACAUGAGGAUCACCCAUGUGCUCGUCUUAUAAGGUACUGUGACGAAAGUCACGGUACC [mod--Eli10] (Eterna round: R97, puzzle: Sensor, turn-off variant 1)"
  subjectOfTest: "MS2 coat protein"
  cat: "Not met"
- sequenceData: "AAGGCGUCAGGAUAUCCAAUAUAUGACAUGAGGAUCACCCAUGUUUCCACUCGUACCUCCGGAGAAGGGACAAAUA [Ex5 #87] (Eterna round: R97, puzzle: Exclusion 5)"
  subjectOfTest: "MS2 coat protein"
  cat: "Not met"
- sequenceData: "AUAAUGUAAGGAUAUCAGUCGUAAUUUAAUUUAAUAUCGACUGAGAAGGUACAUGAGGAUCACCCAUGUGGUCA [E4/9-B2] (Eterna round: R97, puzzle: Exclusion 4)"
  subjectOfTest: "MS2 coat protein"
  cat: "Met"

In: Confirm if apparent KD of MS2 coat protein reported for the sequence UAUCCUCAAGUGAGGAUAUGACGGUCAAGACGCGUUCAGAAGGCACAUGAGGAUCACCCAUGUGAUAAAGGAAU [Eternabot (L2) Solution 38] (Eterna round: R97, puzzle: Brourd's mod of Exclusion 4) is 500 nM or above.
Out: Not met
